Where do the numbers come from? From patent US20260209347A1.

- system-under-test: human NKG2A/CD94 on cells (CHOK1-hNKG2A/CD94) (human, UniProt P26715 1-233; Q13241 1-179)
- Sequence (P26715 whole entry, chain 1 of 2): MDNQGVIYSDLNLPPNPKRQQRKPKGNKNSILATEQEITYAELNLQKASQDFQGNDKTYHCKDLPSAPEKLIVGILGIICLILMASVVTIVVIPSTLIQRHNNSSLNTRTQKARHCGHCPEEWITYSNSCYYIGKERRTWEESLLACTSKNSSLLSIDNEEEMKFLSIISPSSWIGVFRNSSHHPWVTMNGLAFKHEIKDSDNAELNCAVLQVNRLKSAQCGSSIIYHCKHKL
- Sequence (Q13241 whole entry, chain 2 of 2): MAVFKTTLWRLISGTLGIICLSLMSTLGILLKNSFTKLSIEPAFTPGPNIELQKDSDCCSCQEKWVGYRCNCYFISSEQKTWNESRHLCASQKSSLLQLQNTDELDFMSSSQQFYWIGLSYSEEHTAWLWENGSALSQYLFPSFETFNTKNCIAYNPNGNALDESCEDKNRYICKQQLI
- assay-protocol: cell-based or functional assay
The following binders are shown together with reported IC50 (nM), killing of LCL721.221 target cells by NK92 cells values.
readout-name: IC50 (nM), killing of LCL721.221 target cells by NK92 cells

binder	result
hu-52VH-23/VL-21 (antibody, human IgG4 S228P, kappa, V domains shown, full-length humanized antibody; also called hu-52 humanized antibody) VH: QVQLVQSGAEVKKPGASVKVSCKASGFNIQNTYLHWVRQAPGQGLEWMGRIDPANDNIKYVPKFQGRVTMTADTSINTAYMELSRLRSDDTAVYYCTRHGLFYEGWFAYWGQGTLVTVSS VL: DIQLTQSPSTLSASVGDRVTITCSVSSSISSSNLHWYQQKPGKAPKPLIYGTSNLASGVPSRFSGSGSGTEYTLTISSLQPDDAATYYCQQWSSYPYTFGQGTKLEIKR	0.12 nM
cAb-52 (antibody, human IgG4 S228P, kappa, V domains shown, human-mouse chimeric antibody, human IgG4 constant region; also called antibody number 52; NKG2A chimeric antibody) VH: EVQLQQSVAELVRPGASVKLSCTASGFNIQNTYLHWVKQRPEQGLEWIGRIDPANDNIKYVPKFQGKATITADTSSNTAYLQLSSLTSEDTAIYYCTRHGLFYEGWFAYWGQGTLVTVST VL: EIVLTQSPALMAASPGEKVTITCSVSSSISSSNLHWYQQKSGTSPKPWIYGTSNLASGVPVRFSGSGSGTSYSLTISSMEAEDAATYYCQQWSSYPYTFGSGTKLEIKR	0.28 nM
hu-52VH-13/VL-31 (antibody, human IgG4 S228P, kappa, V domains shown, full-length humanized antibody; also called hu-52 humanized antibody) VH: QVQLVQSGAEVKKPGASVKVSCKASGFNIQNTYLHWVRQAPGQGLEWMGRIDPANDNIKYVPKFQGRVTMTADTSTNTAYMELSSLRSEDTAVYYCTRHGLFYEGWFAYWGQGTLVTVSS VL: EIVLTQSPATLSLSPGERATLSCSVSSSISSSNLHWYQQKPGQAPRPLIYGTSNLASGIPARFSGSGSGTDYTLTISSLEPEDAAVYYCQQWSSYPYTFGQGTKLEIKR	0.16 nM
hu-52VH-23/VL-11 (antibody, human IgG4 S228P, kappa, V domains shown, full-length humanized antibody; also called hu-52 humanized antibody) VH: QVQLVQSGAEVKKPGASVKVSCKASGFNIQNTYLHWVRQAPGQGLEWMGRIDPANDNIKYVPKFQGRVTMTADTSINTAYMELSRLRSDDTAVYYCTRHGLFYEGWFAYWGQGTLVTVSS VL: DIQLTQSPSSLSASVGDRVTITCSVSSSISSSNLHWYQQKPGKAPKPLIYGTSNLASGVPSRFSGSGSGTDYTLTISSLQPEDAATYYCQQWSSYPYTFGQGTKLEIKR	0.13 nM
